Each recorded value in this set is attributed to the DeepSol protein solubility set.

assay: soluble on expression in E. coli; label from the status in PepcDB or PDB records
READOUT KIND: soluble on expression in E. coli

Consider the sequence MSTSKRPYKILLRKVESKEENKKDTNETKKKEEESKHYEDRHYRKNDIKHYEENEKTIKSKMHYNSRNRYYDKYSMSYSRYDEKLNKQHSSEKKKDVLVPLLEQASINIKKKKIIIRKLPPTLTEENFFDSFSNNIKDELDYYYFVNGSASKDSSNDIIYSRMYLSFKDDMKTDEFIRTQNGKFFYDLNGVKYKALVSYAPNQTLIKKNKPDSRNNTLESDEYFLKCCEEMNNPVQRVKKDIDYSELINVQTENGAILSPIVIELRSKKKK and give its recorded soluble on expression in E. coli.
not soluble

Consider the sequence MRKEDKGTVIRQLAKYIGQYPHFYLTDIEALNAEKTSELRRNCNKNGVKLVMVKNTLLRAALAASDVDFSSLYSCLKGNTAVMFCEVANSPAKVIKQFTKDTKGEGKPWLKAAYVQESFYIGRENLDALVSIKSKNELIADVVALLQSPAKNVIASLQSAGQTIHGVLKTLEEK and give its recorded soluble on expression in E. coli.
not soluble

---

experiment: soluble on expression in E. coli; label from the status in PepcDB or PDB records
READOUT KIND: soluble on expression in E. coli

Consider the sequence KVWWTLPYGPHEDEKNLTLEDWRDRVLDSTREAVAIRQRAAVDVGVLLSGGVDSSMLVGLLREVGVEDLSTFSIGFQDAGGERGDEFQYSDLIAKHYGTRHHQLRIQESEIIEQLPAAFRAMSEPMVSHDCIAFYLLSREVAKHCKVVQSGQGADELFAGYHWYPQVDGASDPVAAYRYAFVDRSYAEYADTVQPKWRTANDAAGDFVRDHFAQPGASAAVDKALRLDSTVMLVDDPVKRVDNMTMAWGLEARTPFLDYRLVELSARIPGKFKLPDGGKQVLKEAARLVIPSEVIDRKKGYFPVPGLKHLQGDTLNWVRELLTDPSQDRGLFNPTMVDKLLTNPEGQLTPLRGSKLWQLAALNLWLSEQ and give its recorded soluble on expression in E. coli.
not soluble

Consider the sequence MGSDKIHHHHHHMDEVSVWRRAWTYVVTTLAQSLPNRCLLCHQTVIEGSGVCSLCLQRCLYHGPVCLGCGRSLVNDGAFCGACRVLGALPVIAPCSYHQGLGASIAAIKYQGQFAALDVLCRALMARVTQLTEEGEIPPVSLLLPVPLHPKRLKTRGFNQAYEIALLLSKLSGIPLCDDLLRRRRDTQPQAGLTGKARRKNLLGAFELTGSCHQGSVALVDDVVTTGSTANEIATMLQLQGVRVQVWCLARAEAPGLLDTFS and give its recorded soluble on expression in E. coli.
not soluble

---

assay: soluble on expression in E. coli; label from the status in PepcDB or PDB records
READOUT KIND: soluble on expression in E. coli

Known soluble on expression in E. coli results, listed for orientation:
Consider the sequence MTENNKLQTIEQQLVQEKNVSDNVLNKVRVLESQGNLELPNDYSPSNAMKQAWLQISQDNKLMSCNDTSKANALLDMVTQGLNPAKNQCYFIPYGNKMQLQRSYHGNVMMLKRDAGAQDVVAQVIYKGDTFKQEMGETGRIKAIKHEQDFFNIDKENIIGAYCTIVFNDGRDNYIEVMTIEQIKQAWMQSSMIKDEKALQNSKTHNNFKEEMAKKTVINRAAKRYINTSTDSNLFKYAQESEQRQRKEVLDAEVEENANQEQLDFEQPVLEEAQYTELENDKPIDVSDFEEIKEPATEKESEEEPF and give its recorded soluble on expression in E. coli.
not soluble

Consider the sequence MASDPITTQEFSPRQNAVLDQALRLLVEGGEKALTTSGLARAANCSKESLYKWFGDRDGLLAAMITFQQSKVRTFEKAGDRVSAPQLADHLEVFAHDLLDVLAGDVSLALNRLAIGQASRDGSKLGDLLLERGRRQIDRRARGLIEAGRRSGYLRFDDAEEAYRSFYGLIVSDLHVRMLLGEAPDKDFSARAKKAVVAFLTLYGTEKVHSELGGKVA and give its recorded soluble on expression in E. coli.
soluble

Consider the sequence GRPYKLLNGIKLGVYIPQEWHDRLMEIAKEKNLTLSDVCRLAIKEYLDNHDKQKK and give its recorded soluble on expression in E. coli.
soluble

Consider the sequence MLLHLIYGPTCSGKTDMAIQIAQETGWPVVALDRVQCCPQIATGSGRPLESELQSTRRIYLDSRPLTEGILDAESAHRRLIFEVDWRKSEEGLILEGGSISLLNCMAKSPFWRSGFQWHVKRLRLGDSDAFLTRAKQRVAEMFAIREDRPSLLEELAELWNYPAARPILEDIDGYRCAIRFARKHDLAISQLPNIDAGRHVELIEAIANEYLEHALSQERDFPQWPEDGAGQPVCPVTLTRIRGSRSHHHHHH and give its recorded soluble on expression in E. coli.
soluble

Consider the sequence MSLIHSMTAFSRIQKQFDVGDFCWEIRSVNHRYLDVSFRLPESFRFLEAELRTLLRDKIHRGKLECHLKYKDTSCDNRSMLINIGTINALLDLSSKLSASHHLANDMTVSQVLSWPGVVEASLLDMEELSQIALELFQKSIDKLCEVRAGEGRSLKAYVEDRLQALRQEVMKSKSIVVSMSAKTKDKLLTRLHELQMDVPEARVEQEIALLLAKLDVSEELDRLETHIAEVSRTLNAEKVTGRRLDFLMQELNREANTLSSKSDSAELTLCAVEMKVLIEQMREQIQNFEEGHHHHHH and give its recorded soluble on expression in E. coli.
soluble

More entries:
Consider the sequence MGSDKIHHHHHHVAQDVITQAPLGFGLGLRTQHFDAVLNTEPDIDWFEVLSENYMVAGGKPRYYLKEIGERYPLVMHGVSLSIGSTDPLNMDYLKALKQLANDVQPQWISDHICWTSIHGVNSHDLLPLPYTEETVKHVAQRIKTVQDFLGRRILMENVSSYLSYQDSSMDEWEFVNAVAEAADCLILLDINNIYVSARNHNFNPLDYLNKINPKRVQQFHLAGHSDYGDYVIDTHDHDVPSCVWDLYCAALKRFGGISTMIERDANIPEFYALEAELTIARNIARDTLGKAHPLNAAKNRKNMHEGKVIA and give its recorded soluble on expression in E. coli.
not soluble
